Reference source: ChEMBL document CHEMBL1134686

# subject.of.test: Glutamate NMDA receptor (Rattus norvegicus) (UniProt P35439+Q00959+Q00960+Q00961+Q62645+Q8VHN2+Q9R1M7)
# experimental.details: Affinity for the NMDA receptor site was assessed by the ability to displace [3H]CPP from its binding site in rat synaptic membranes at a concentration of 100 uM
# Type: cell membranes
value.type: inhibition (%)
Response body: numeric value in %, unit text excluded.

1. NC(Cc1nc2c(Cl)cccc2n1CP(=O)(O)O)C(=O)O (single isomer, unassigned; (-)) :: 81
2. NC(Cc1nc2cccc(Cl)c2n1CP(=O)(O)O)C(=O)O (single isomer, unassigned; (-)) :: 73

Turning now to a further compound:
Q. Form field: reported inhibition of NC(Cc1nc2ccccc2n1CCP(=O)(O)O)C(=O)O (single isomer, unassigned; (-))
A. 39
